B1: CCND1 (parent)
chain: IRRAYPDANLLNDRVLRAMLKAEE

variants of: B1; test: protein stability index of a GFP-peptide fusion (GPS, HEK-293T) (PSI 1-6); higher = more stable; settings: c terminus: a fixed tail appended;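 also: lentivirally expressed fusions sorted by FACS into six bins by GFP to DsRed ratio, PSI derived from sequencing read proportions per bin multiplied by bin number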
Please go through the items and note down their protein stability index.
Answer with a number only.

## Task Reported protein stability index for IRRAYPDANLLNIRVLRAMLKAEE [D13I] : what is it?
## Result 2.91

## Task Which protein stability index is reported for this variant? IRRAYPDANLLYDRVLRAMLKAEE [N12Y]
## Result 2.52

## Task Returns the measured protein stability index for the input variant. Input: IYRAYPDANLLNDRVLRAMLKAEE [R2Y]
## Result 1.6

## Task Requested field: protein stability index. Item: VRRAYPDANLLNDRVLRAMLKAEE [I1V]
## Result 2.69

## Task Give its protein stability index value. Item: IRRAYPDANLLNDRVLRAMLKYEE [A22Y]
## Result 2.43

## Task What measured protein stability index goes with IRRAYPDANLLSDRVLRAMLKAEE [N12S] ?
## Result 2.11

## Task Entry under review: IRRAYPDANLLNDRVLRAMLKAEK [E24K] . Reported protein stability index?
## Result 2.05

## Task For LRRAYPDANLLNDRVLRAMLKAEE [I1L] , what is its reported protein stability index?
## Result 2.5

## Task Which protein stability index is reported for this variant? IRRAYPDANLLNDRVLRAMLKAEP [E24P]
## Result 2.39
